What pIC50 was measured for each of the following?
Tested on: HT-29 (colon)
Assay: Growth inhibition, MTT assay, HT-29
Format: cell-based, human
Settings: Homo sapiens, HT-29, 72-h drug exposure, read-out: IC50 growth inhibitory activity
Experimental: The growth inhibitory properties of representative compounds of the invention were also determined by evaluating their growth inhibitory activity against a series of human tumor cell lines using a 72-h drug exposure. Cell counts were measured using the MTT assay.
Kindly note that pIC50 refers to -log10 of the concentration in mol/L and answer with the value alone.

## Task What does the record list as pIC50 for COC1=CC(=O)c2c(cc(COP(=O)(N(C)CCBr)N(C)CCBr)n2C)C1=O [Compound 5] ?
## Result 7.03

## Task What does the record list as pIC50 for COC1=CC(=O)c2c(c(COP(=O)(N(C)CCBr)N(C)CCBr)cn2C)C1=O [Compound 47] ?
## Result 7.19

Attribution: patent US7304046B2
